Data origin, for the record: paper PMC6017603

# measured-target: ΔF508-NBD1 (Mus musculus, UniProt P26361, DEL508-508)
# Construct: Murine WT NBD1 and ΔF508-NBD1 were obtained from CFTR Folding Consortium; purchased CFTR Folding Consortium (obtained, not a commercial vendor)
# experimental-protocol: SPR direct binding to sensor chip-immobilized ΔF508-NBD1
# Set-up: species or system murine
# measurement-setup: SPR; mean ± s.d. of two-three separate analyses
# Description: SPR measurements were performed on a BIAcore X-100 instrument (GE-Healthcare, Milwaukee, WI, USA), using research-grade CM5 carboxyl-methyl-dextran–coated sensor chips (GE-Healthcare). The murine ΔF508-NBD1 was resuspended at 20 µg/mL in 10 mM sodium acetate pH 4.0 and allowed to react with the first flow cell of a CM5 sensor chip pre-activated with 50 μL of 0.2 M EDC and 0.05 M NHS and deactivated by injection of HCl–ethanolamine. […]
readout: RU of ligand bound to ΔF508-NBD1 at equilibrium (maximal RU)

1: CSc1cccc(Nc2nc(-c3ccc(Br)cc3)cs2)c1
2: CSc1cccc(Nc2nc(-c3ccc4[nH]c(=O)oc4c3)cs2)c1
3: Cc1ccc(NC(=O)C2(c3ccc4c(c3)OC(F)(F)O4)CC2)nc1-c1cccc(C(=O)O)c1 [VX809, Lumacaftor, reference compound]
4: CSc1cccc(Nc2nc(-c3cccc(Cl)c3)cs2)c1
Highest to lowest RU of ligand bound to ΔF508-NBD1 at equilibrium (maximal RU): rank the entries shown above. // format: requested-order list of labels
3, 2, 1, 4

====

# measured-target: K8/ΔF508-NBD1 interaction (Mus musculus, UniProt P26361, DEL508-508)
# Construct: Murine WT NBD1 and ΔF508-NBD1 were obtained from CFTR Folding Consortium; purchased ΔF508-NBD1: CFTR Folding Consortium (obtained); K8: Pro-Spec-Tany TechnoGene Ltd
# Sequence (P26361 with tags, fused parts or gaps DEL508-508 limits assumed): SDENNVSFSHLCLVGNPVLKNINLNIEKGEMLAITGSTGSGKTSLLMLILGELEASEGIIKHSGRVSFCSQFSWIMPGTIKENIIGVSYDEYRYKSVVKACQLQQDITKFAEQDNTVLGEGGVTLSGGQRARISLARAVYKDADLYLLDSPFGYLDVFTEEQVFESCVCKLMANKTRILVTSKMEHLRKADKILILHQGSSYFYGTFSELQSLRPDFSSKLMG
# experimental-protocol: SPR injection of compounds onto K8-saturated ΔF508-NBD1 surface
# Format: binding, murine
# measurement-setup: compounds at 150 μM; K8 1 µM saturating
readout: effect of compound injection on K8-saturated ΔF508-NBD1 surface

The value of effect of compound injection on K8-saturated ΔF508-NBD1 surface recorded for CSc1cccc(Nc2nc(-c3cccc(Cl)c3)cs2)c1 when tested on K8/ΔF508-NBD1 interaction (Mus musculus, UniProt P26361, DEL508-508) reads increase of bound RU

# value of effect of compound injection on K8-saturated ΔF508-NBD1 surface, K8/ΔF508-NBD1 interaction (Mus musculus, UniProt P26361, DEL508-508), item Cc1ccc(NC(=O)C2(c3ccc4c(c3)OC(F)(F)O4)CC2)nc1-c1cccc(C(=O)O)c1 [VX809, Lumacaftor, reference compound] = increase of bound RU

====

# measured-target: ΔF508-NBD1 (Mus musculus, UniProt P26361, DEL508-508)
# Construct: Murine WT NBD1 and ΔF508-NBD1 were obtained from CFTR Folding Consortium
# experimental-protocol: SPR direct binding to sensor chip-immobilized ΔF508-NBD1
# measurement-setup: SPR, Scatchard's plot analysis of equilibrium binding data; mean ± S.D. of two-three analyses; PBS, 0.05% P20, 5% DMSO, pH 7.4, 25 °C
readout: Kd (µM)

Here is how some molecules turned out for Kd.
Readout Kd for CSc1cccc(Nc2nc(-c3ccc4[nH]c(=O)oc4c3)cs2)c1 , test system ΔF508-NBD1 (Mus musculus, UniProt P26361, DEL508-508), was 198

Result for Cc1ccc(NC(=O)C2(c3ccc4c(c3)OC(F)(F)O4)CC2)nc1-c1cccc(C(=O)O)c1 [VX809, Lumacaftor, reference compound] , tested on ΔF508-NBD1 (Mus musculus, UniProt P26361, DEL508-508), Kd: 24.2

P: CSc1cccc(Nc2nc(-c3ccc(Br)cc3)cs2)c1
Q: CSc1cccc(Nc2nc(-c3cccc(Cl)c3)cs2)c1
For the pair P and Q , which member has the lower Kd number? Which one? Tell me its label.
Q
